System: Wild type
test description: S. aureus survival, RN4220 and DeltatarO strains – OD600, teichoic acid synthesis inhibitors, primary screen (AID 463173)
assay setup: S. aureus RN4220 wild type/DeltatarO growth, OD600, 18 h, stronger effect = lower value, screened at 18.75 µg/mL (by protocol)
Hit rate of the full screen: of about 52,000 compounds, about 1,700 (3.3%) were called active. Many of the other results were omitted from the sample, so actives are more common in it than they were.
Values of survival strictly less than 80% map to Yes, and values of at least 80% map to No.

- compound: "CC1CCCN(c2c(S(=O)(=O)c3ccccc3)cnc3ccc(Cl)cc23)C1 (stereo not given)"
  class name: "No"
- compound: "Cc1cc(C)cc(NC(=O)Cn2nnc(C(=O)NCc3ccccc3Cl)c2N)c1"
  class name: "Yes"
- compound: "COc1ccccc1NC(=O)Cn1nnc(C(=O)Nc2ccccc2Br)c1N"
  class name: "No"
- compound: "CCc1ccc(S(=O)(=O)c2cnc3ccc(OC)cc3c2N2CCCC(C)C2)cc1 (stereo not given)"
  class name: "Yes"
- compound: "Cc1cccc(NC(=O)Cn2nnc(C(=O)Nc3ccccc3Br)c2N)c1C"
  class name: "Yes"
- compound: "O=C(Nc1cc(-c2nc3ccccc3o2)ccc1Cl)c1sc2c([N+](=O)[O-])cccc2c1Cl"
  class name: "No"
- compound: "O=C(Nc1ccccc1)C1CCCN1C1CCCCC1 (stereo not given)"
  class name: "No"
- compound: "CCc1ccccc1NC(=O)Cn1nnc(C(=O)NCc2cccs2)c1N"
  class name: "No"
- compound: "COc1ccc(S(=O)(=O)c2cnc3cc(OC)c(OC)cc3c2N2CCCC(C)C2)cc1 (stereo not given)"
  class name: "No"

All figures here come from PubChem BioAssay AID463173.
